From: paper PMC10913730

Tested on: MRSA isolates
Method notes: MIC/MBC, CLSI broth microdilution, MRSA isolates
Type: cell-based, Staphylococcus aureus
Condition: Staphylococcus aureus, MRSA, pH 6.5, MRSA 0646, pH 6.5
Assay metric: MIC (µg/mL)
Answers are plain numbers, in µg/mL.

- Compound: "Oc1c(Br)cc(Br)cc1-c1cc(Br)cc(Br)c1O [C58, MC21-A]"
  Assay metric: "MIC"
  Numeric readout: 1

Lab note: each compound below needs its MIC filled in.
1. [Na+].[Na+].[O-]c1c(Cl)cc(Cl)cc1-c1cc(Cl)cc(Cl)c1[O-] [C59Na]
2. [Li+].[Li+].[O-]c1c(Cl)cc(Cl)cc1-c1cc(Cl)cc(Cl)c1[O-] [C59Li]
3. CN[C@H](CC(C)C)C(=O)N[C@H]1C(=O)N[C@@H](CC(N)=O)C(=O)N[C@H]2C(=O)N[C@H]3C(=O)N[C@H](C(=O)N[C@H](C(=O)O)c4cc(O)cc(O)c4-c4cc3ccc4O)[C@H](O)c3ccc(c(Cl)c3)Oc3cc2cc(c3O[C@@H]2O[C@H](CO)[C@@H](O)[C@H](O)[C@H]2O[C@H]2C[C@](C)(N)[C@H](O)[C@H](C)O2)Oc2ccc(cc2Cl)[C@H]1O [Vancomycin, vancomycin, reference compound]

RESULT:
1. 0.5
2. 0.5
3. 2

QUERY: Quote MIC reported for Oc1c(Cl)cc(Cl)cc1-c1cc(Cl)cc(Cl)c1O [C59] please.
RESULT: 1
